The reader will find reported EC50 values listed item by item below.
# TARGET: sTAAR365 D3.32E (Petromyzon marinus, UniProt A0A678XMK4, D114E)
# Sequence (A0A678XMK4 whole entry D114E): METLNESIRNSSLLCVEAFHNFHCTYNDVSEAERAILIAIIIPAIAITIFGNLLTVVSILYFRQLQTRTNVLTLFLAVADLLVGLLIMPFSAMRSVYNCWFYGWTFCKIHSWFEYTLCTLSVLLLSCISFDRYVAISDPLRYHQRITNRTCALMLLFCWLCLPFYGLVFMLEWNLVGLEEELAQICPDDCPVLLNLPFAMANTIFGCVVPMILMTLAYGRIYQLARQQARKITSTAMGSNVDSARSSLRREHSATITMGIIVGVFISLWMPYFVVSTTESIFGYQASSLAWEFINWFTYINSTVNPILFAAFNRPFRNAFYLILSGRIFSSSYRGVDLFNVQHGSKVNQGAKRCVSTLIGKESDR
# PROCEDURE DETAILS: cell-based
TEST READOUT: EC50 (µM)

| STRUCTURE | CENSORING QUALIFIER | OBSERVED |
| --- | --- | --- |
| NCCCCN | > | 500 |
| NCCCCCN | = | 14 |

====

The reader will find reported EC50 values listed item by item below.
# TARGET: sTAAR365 Y6.51F (Petromyzon marinus, UniProt A0A678XMK4, Y272F)
# Sequence (A0A678XMK4 whole entry Y272F): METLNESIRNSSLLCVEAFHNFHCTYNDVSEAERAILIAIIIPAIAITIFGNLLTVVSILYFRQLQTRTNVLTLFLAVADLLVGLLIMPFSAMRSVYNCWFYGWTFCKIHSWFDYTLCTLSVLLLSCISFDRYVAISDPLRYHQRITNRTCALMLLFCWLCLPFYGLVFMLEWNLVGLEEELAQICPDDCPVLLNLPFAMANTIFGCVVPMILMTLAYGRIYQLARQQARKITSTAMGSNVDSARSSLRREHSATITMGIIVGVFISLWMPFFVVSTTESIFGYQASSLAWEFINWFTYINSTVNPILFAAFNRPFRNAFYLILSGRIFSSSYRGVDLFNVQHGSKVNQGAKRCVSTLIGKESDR
# PROCEDURE DETAILS: cell-based

| STRUCTURE | CENSORING QUALIFIER | EC50 [µM] |
| --- | --- | --- |
| NCCCCN | > | 500 |
| NCCCCCN | = | 1.7 |
| NCCCNCCCCNCCCN | = | 114 |
